Sourced from the supplement of paper PMC10567573

B1: SPOPL (parent)
chain: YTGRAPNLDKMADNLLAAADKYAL

variants of: B1; experiment: protein stability index of a GFP-peptide fusion (GPS, HEK-293T) (PSI 1-6); higher = more stable; details: c terminus: a fixed tail appended;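 further: lentivirally expressed fusions sorted by FACS into six bins by GFP to DsRed ratio, PSI derived from sequencing read proportions per bin multiplied by bin number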
Classification field: enter label 1 for protein stability index values not below 2, label 0 for values below it.

- mutation-notation: "A18F"
  assigned-category: "label 0"
- mutation-notation: "A17D"
  assigned-category: "label 1"
- mutation-notation: "N14I"
  assigned-category: "label 0"
- mutation-notation: "A5S"
  assigned-category: "label 1"
- mutation-notation: "N7S"
  assigned-category: "label 0"
- mutation-notation: "D20R"
  assigned-category: "label 1"
- mutation-notation: "A17L"
  assigned-category: "label 1"
- mutation-notation: "A12L"
  assigned-category: "label 0"
- mutation-notation: "G3F"
  assigned-category: "label 0"
- mutation-notation: "N14P"
  assigned-category: "label 1"
- mutation-notation: "R4M"
  assigned-category: "label 0"
- mutation-notation: "K10T"
  assigned-category: "label 0"
- mutation-notation: "L16R"
  assigned-category: "label 1"
- mutation-notation: "R4C"
  assigned-category: "label 1"
- mutation-notation: "D9A"
  assigned-category: "label 1"
- mutation-notation: "A18R"
  assigned-category: "label 0"
- mutation-notation: "G3P"
  assigned-category: "label 1"
- mutation-notation: "D20G"
  assigned-category: "label 1"
- mutation-notation: "M11V"
  assigned-category: "label 1"
- mutation-notation: "A17T"
  assigned-category: "label 1"
- mutation-notation: "Y1Q"
  assigned-category: "label 1"
- mutation-notation: "M11Y"
  assigned-category: "label 0"
- mutation-notation: "R4Q"
  assigned-category: "label 1"
- mutation-notation: "T2N"
  assigned-category: "label 1"
- mutation-notation: "L15G"
  assigned-category: "label 1"
- mutation-notation: "A23P"
  assigned-category: "label 1"
- mutation-notation: "T2A"
  assigned-category: "label 0"
- mutation-notation: "A17H"
  assigned-category: "label 1"
- mutation-notation: "D13I"
  assigned-category: "label 1"
- mutation-notation: "Y22T"
  assigned-category: "label 1"
- mutation-notation: "D9T"
  assigned-category: "label 0"
- mutation-notation: "L15T"
  assigned-category: "label 1"
- mutation-notation: "D20I"
  assigned-category: "label 0"
- mutation-notation: "L15H"
  assigned-category: "label 1"
- mutation-notation: "P6D"
  assigned-category: "label 1"
- mutation-notation: "A23R"
  assigned-category: "label 0"
- mutation-notation: "Y22W"
  assigned-category: "label 0"
- mutation-notation: "Y1L"
  assigned-category: "label 1"
- mutation-notation: "D9S"
  assigned-category: "label 0"
- mutation-notation: "A12P"
  assigned-category: "label 1"
- mutation-notation: "A12W"
  assigned-category: "label 0"
- mutation-notation: "G3N"
  assigned-category: "label 1"
- mutation-notation: "A17Q"
  assigned-category: "label 1"
- mutation-notation: "K21Q"
  assigned-category: "label 1"
- mutation-notation: "A19Q"
  assigned-category: "label 1"
- mutation-notation: "A23N"
  assigned-category: "label 1"
- mutation-notation: "A17I"
  assigned-category: "label 0"
- mutation-notation: "A5M"
  assigned-category: "label 0"
- mutation-notation: "A12F"
  assigned-category: "label 0"
- mutation-notation: "Y22Q"
  assigned-category: "label 1"
- mutation-notation: "A5Q"
  assigned-category: "label 1"
- mutation-notation: "A12N"
  assigned-category: "label 1"
- mutation-notation: "D20P"
  assigned-category: "label 0"
- mutation-notation: "Y1V"
  assigned-category: "label 0"
- mutation-notation: "P6H"
  assigned-category: "label 0"
- mutation-notation: "L16C"
  assigned-category: "label 0"
- mutation-notation: "T2G"
  assigned-category: "label 1"
- mutation-notation: "A12Q"
  assigned-category: "label 1"
- mutation-notation: "K21N"
  assigned-category: "label 1"
- mutation-notation: "L16M"
  assigned-category: "label 1"
- mutation-notation: "L15V"
  assigned-category: "label 1"
- mutation-notation: "N7K"
  assigned-category: "label 0"
- mutation-notation: "D13C"
  assigned-category: "label 1"
- mutation-notation: "N14D"
  assigned-category: "label 1"
- mutation-notation: "D13V"
  assigned-category: "label 0"
- mutation-notation: "Y22P"
  assigned-category: "label 1"
- mutation-notation: "K21M"
  assigned-category: "label 0"
- mutation-notation: "P6Q"
  assigned-category: "label 1"
- mutation-notation: "M11I"
  assigned-category: "label 1"
- mutation-notation: "A12G"
  assigned-category: "label 1"
- mutation-notation: "Y1T"
  assigned-category: "label 1"
- mutation-notation: "L15F"
  assigned-category: "label 1"
- mutation-notation: "D13P"
  assigned-category: "label 1"
- mutation-notation: "D13N"
  assigned-category: "label 1"
- mutation-notation: "L24Y"
  assigned-category: "label 0"
- mutation-notation: "T2F"
  assigned-category: "label 1"
- mutation-notation: "L15I"
  assigned-category: "label 1"
- mutation-notation: "Y1I"
  assigned-category: "label 1"
- mutation-notation: "L24K"
  assigned-category: "label 1"
- mutation-notation: "D9Q"
  assigned-category: "label 1"
- mutation-notation: "N7C"
  assigned-category: "label 0"
- mutation-notation: "R4T"
  assigned-category: "label 0"
